Biological target: T1, recombinant canine Nerve Growth Factor (Canis lupus familiaris NGF) (canine (Canis lupus familiaris), UniProt Q29074 110-229 (pig entry), limits assumed)
T1 construct: also called canine NGF; Dog NGF
T1 chain: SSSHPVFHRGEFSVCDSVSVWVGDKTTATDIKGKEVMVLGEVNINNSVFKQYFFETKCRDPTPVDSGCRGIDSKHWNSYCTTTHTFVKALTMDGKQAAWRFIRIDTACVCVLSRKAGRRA
Assay: SPR, Biacore T100, dog NGF; run 11/29
Reported values of pKd for individual entries
As a rule, pKd stands for the negative log10 of the concentration, concentration in M.

A selection of reference data follows.
BINDER	RESULT NUMBER
LTM109 (HC Y101W, G103A; LC D28S, H32N, K92H) (antibody, V domains shown, Full IgG; constant regions are not restated; also called CAN-LTM109-VH / CAN-LTM109-VL) VH: EVQLVESGGDLARPGGSLKLSCVVSGFSLIGYDINWVRQAPGKGLQWVTMIWGDGTTDYNSALKSRFTVSRDNAMNTVYLQMNSLRVEDTAVYYCARGGYWYATSYYFDYWGQGTLVTVSS VL: DIVMTQTPLSLSVSPGETASISCRASQSISNNLNWFRQKPGQSPQRLIYYISRFHSGVPDRFSGSGSGTDFTLRISRVEADDTGVYYCQQSHTLPYTFGAGTKLEIK	9.13
LTM construct 34 (HC Y100W, LC D28S, H32N) (antibody, V domains shown, Point mutant of canE3M65 as full IgG; Constant regions are not restated) VH: EVQLVESGGDLARPGGSLKLSCVVSGFSLIGYDINWVRQAPGKGLQWVTMIWGDGTTDYNSALKSRFTVSRDNAMNTVYLQMNSLRVEDTAVYYCARGGWYYGTSYYFDYWGQGTLVTVSS VL: DIVMTQTPLSLSVSPGETASISCRASQSISNNLNWFRQKPGQSPQRLIYYISRFHSGVPDRFSGSGSGTDFTLRISRVEADDTGVYYCQQSKTLPYTFGAGTKLEIK	9.05
LTM construct 45 (HC Y100W, LC H32N) (antibody, V domains shown, Point mutant of canE3M65 as full IgG; Constant regions are not restated) VH: EVQLVESGGDLARPGGSLKLSCVVSGFSLIGYDINWVRQAPGKGLQWVTMIWGDGTTDYNSALKSRFTVSRDNAMNTVYLQMNSLRVEDTAVYYCARGGWYYGTSYYFDYWGQGTLVTVSS VL: DIVMTQTPLSLSVSPGETASISCRASQDISNNLNWFRQKPGQSPQRLIYYISRFHSGVPDRFSGSGSGTDFTLRISRVEADDTGVYYCQQSKTLPYTFGAGTKLEIK	8.36

Now look at this one.
Ask: I have this binder here, LTM construct 35 (HC Y100W, LC D28S, H32N, K92H) (antibody, V domains shown, Point mutant of canE3M65 as full IgG; Constant regions are not restated) VH: EVQLVESGGDLARPGGSLKLSCVVSGFSLIGYDINWVRQAPGKGLQWVTMIWGDGTTDYNSALKSRFTVSRDNAMNTVYLQMNSLRVEDTAVYYCARGGWYYGTSYYFDYWGQGTLVTVSS VL: DIVMTQTPLSLSVSPGETASISCRASQSISNNLNWFRQKPGQSPQRLIYYISRFHSGVPDRFSGSGSGTDFTLRISRVEADDTGVYYCQQSHTLPYTFGAGTKLEIK , and I need its recorded pKd.
Result: 9.09

Reference source: patent US20150147318A1
